Data provenance is BigSolDB 2.1.

# experimental context: in 2-methoxyethanol, 313.15 K
measurement type: solubility (mole fraction)
Would you mind answering with just the numeric figure?

(Q) Quick check: solubility (mole fraction) of "Nc1nc(N)c2nc(-c3ccccc3)c(N)nc2n1" ?
(A) 0.0106

###

# experimental context: in n-butanol, 323.15 K
measurement type: solubility (mole fraction)
Please reply with the number alone, leaving off any unit.

(Q) Give its solubility (mole fraction) value. Item: "Nc1nc(N)c2nc(-c3ccccc3)c(N)nc2n1"
(A) 6.48e-05

###

# experimental context: in 1,2-dichloroethane, 313.15 K
measurement type: solubility (mole fraction)
Lab note: jot down the number only; don't add units.

(Q) # input compound: "Nc1nc(N)c2nc(-c3ccccc3)c(N)nc2n1" ; wanted: its solubility (mole fraction)
(A) 1.7e-05

###

# experimental context: in isopropanol, 308.15 K
measurement type: solubility (mole fraction)
The answer should be written as a number, with no unit following it.

(Q) Query: solubility (mole fraction); subject: "Nc1nc(N)c2nc(-c3ccccc3)c(N)nc2n1"
(A) 1.47e-05

###

# experimental context: in 1,2-dichloroethane, 293.15 K
measurement type: solubility (mole fraction)
// response body must contain only the number

(Q) Please give the measured solubility (mole fraction) for this molecule: "Nc1nc(N)c2nc(-c3ccccc3)c(N)nc2n1"
(A) 3.52e-06

###

# experimental context: in n-propanol, 298.15 K
measurement type: solubility (mole fraction)
// keep it numeric: no unit symbol after the value

(Q) Query: solubility (mole fraction); subject: "Nc1nc(N)c2nc(-c3ccccc3)c(N)nc2n1"
(A) 1.43e-05

###

# experimental context: in 1,2-dichloroethane, 303.15 K
measurement type: solubility (mole fraction)

(Q) What does the data say about its solubility (mole fraction)? Entry: "Nc1nc(N)c2nc(-c3ccccc3)c(N)nc2n1"
(A) 7.52e-06

###

# experimental context: in water, 298.15 K
measurement type: solubility (mole fraction)
Enter the number alone.

(Q) Form field: reported solubility (mole fraction) of "Nc1nc(N)c2nc(-c3ccccc3)c(N)nc2n1"
(A) 1.79e-06

###

# experimental context: in 2-methoxyethanol, 323.15 K
measurement type: solubility (mole fraction)

(Q) Look up solubility (mole fraction): "Nc1nc(N)c2nc(-c3ccccc3)c(N)nc2n1"
(A) 0.0181

###

# experimental context: in water, 318.15 K
measurement type: solubility (mole fraction)
Please respond with just the number, no unit label.

(Q) # input molecule: "Nc1nc(N)c2nc(-c3ccccc3)c(N)nc2n1" ; wanted: its solubility (mole fraction)
(A) 3.76e-06

###

# experimental context: in n-butanol, 313.15 K
measurement type: solubility (mole fraction)
Write no unit; give the number alone.

(Q) Which solubility (mole fraction) is reported for this compound? "Nc1nc(N)c2nc(-c3ccccc3)c(N)nc2n1"
(A) 3.11e-05

###

# experimental context: in n-butanol, 288.15 K
measurement type: solubility (mole fraction)
Reply briefly: the number, and no unit.

(Q) // query solubility (mole fraction) value for entry "Nc1nc(N)c2nc(-c3ccccc3)c(N)nc2n1"
(A) 5.33e-06

###

# experimental context: in ethyl acetate, 303.15 K
measurement type: solubility (mole fraction)
Output spec: single numeric token, no unit.

(Q) Which value of solubility (mole fraction) has been reported for "Nc1nc(N)c2nc(-c3ccccc3)c(N)nc2n1" in the records?
(A) 1.42e-05
